These measurements were taken from patent US10259843B2.

assay: mouse 55° C. warm water tail withdrawal assay, antinociception; type: in vivo; settings: opioid receptors contributing to antinociception
Non-standard residues stand in square brackets, D forms with d. Residues, ends and D or L forms follow the SMILES beside them.
assay_metric: Receptors involved

>>> reading("O=C1N[C@H](Cc2c[nH]c3ccccc23)C(=O)N[C@@H](Cc2ccccc2)C(=O)N2CCC[C@@H]2C(=O)N[C@H]1Cc1ccccc1 [JVA 2802, cyclo[Phe-D-Pro-Phe-D-Trp], reference compound] (cyclo(F[dP]F[dW]))")
"KOR"
>>> reading("O=C1N[C@@H](Cc2ccccc2)C(=O)N2CCC[C@@H]2C(=O)N[C@@H](Cc2ccccc2)C(=O)N[C@H]1Cc1c[nH]c2ccccc12 [JVA 2801, cyclo[Phe-D-Pro-Phe-Trp], reference compound] (cyclo(FWF[dP]))")
"KOR, MOR"
>>> reading("O=C1N[C@@H](Cc2ccccc2)C(=O)N2CCC[C@@H]2C(=O)N[C@H](Cc2ccccc2)C(=O)N[C@H]1Cc1c[nH]c2ccccc12 [JVA 3606, cyclo[Phe-D-Pro-D-Phe-Trp]] (cyclo(F[dP][dF]W))")
"KOR, MOR"

====

assay: acute tolerance model; details: in vivo
Non-standard residues stand in square brackets, D forms with d. Residues, ends and D or L forms follow the SMILES beside them.
assay_metric: Acute Tolerance ED50 shift (fold)

>>> reading("O=C1N[C@H](Cc2ccccc2)C(=O)N2CCC[C@@H]2C(=O)N[C@H](Cc2ccccc2)C(=O)N[C@H]1Cc1c[nH]c2ccccc12 [JVA 3607, cyclo-[D-Phe-D-Pro-D-Phe-Trp]] (cyclo([dF][dP][dF]W))")
5.19
>>> reading("O=C1N[C@@H](Cc2ccccc2)C(=O)N2CCC[C@@H]2C(=O)N[C@@H](Cc2ccccc2)C(=O)N[C@H]1Cc1c[nH]c2ccccc12 [JVA 2801, cyclo[Phe-D-Pro-Phe-Trp], reference compound] (cyclo(FWF[dP]))")
1.73
>>> reading("O=C1N[C@H](Cc2ccccc2)C(=O)N[C@H](Cc2c[nH]c3ccccc23)C(=O)N[C@@H](Cc2ccccc2)C(=O)N2CCC[C@H]12 [JVA 3608, cyclo[Phe-D-Pro-D-Phe-D-Trp]] (cyclo(F[dP][dF][dW]))")
9.87

====

assay: mouse 55° C. warm water tail withdrawal assay, antinociception; type: in vivo; settings: antinociception, i.c.v.
Non-standard residues stand in square brackets, D forms with d. Residues, ends and D or L forms follow the SMILES beside them.
assay_metric: ED50 (95% CI) i.c.v.

>>> reading("O=C1N[C@H](Cc2ccccc2)C(=O)N2CCC[C@H]2C(=O)N[C@H](Cc2ccccc2)C(=O)N[C@H]1Cc1c[nH]c2ccccc12 [JVA 3638, cyclo[D-Phe- Pro-D-Phe-Trp]] (cyclo(P[dF]W[dF]))")
"8.93 (1.96-19.5) nmol"
>>> reading("O=C1N[C@@H](Cc2ccccc2)C(=O)N2CCC[C@H]2C(=O)N[C@@H](Cc2ccccc2)C(=O)N[C@H]1Cc1c[nH]c2ccccc12 [JVA 3612, cyclo[Phe-Pro- Phe-Trp]] (cyclo(FPFW))")
"3.52 (2.01-6.42) nmol"
>>> reading("O=C1N[C@H](Cc2c[nH]c3ccccc23)C(=O)N[C@@H](Cc2ccccc2)C(=O)N2CCC[C@H]2C(=O)N[C@H]1Cc1ccccc1 [JVA 3639, cyclo[Phe-Pro- Phe-D-Trp]] (cyclo(FPF[dW]))")
"49.7 (34.8-69.8) nmol"

====

Ki for assorted molecules
Target: mu opioid receptor (MOR) (Homo sapiens)
Sequence (P35372 whole entry): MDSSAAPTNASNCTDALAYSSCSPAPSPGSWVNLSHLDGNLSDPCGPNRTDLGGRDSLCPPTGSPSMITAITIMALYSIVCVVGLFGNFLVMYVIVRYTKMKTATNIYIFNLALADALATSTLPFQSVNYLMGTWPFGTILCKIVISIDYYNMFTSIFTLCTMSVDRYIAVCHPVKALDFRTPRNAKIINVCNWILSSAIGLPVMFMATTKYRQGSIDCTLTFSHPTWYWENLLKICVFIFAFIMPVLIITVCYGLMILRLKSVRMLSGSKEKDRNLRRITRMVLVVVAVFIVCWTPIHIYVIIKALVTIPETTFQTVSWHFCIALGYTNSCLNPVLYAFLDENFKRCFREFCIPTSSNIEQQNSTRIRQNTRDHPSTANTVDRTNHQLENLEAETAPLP
Test: radioligand binding assay, mu opioid receptor affinity
Conditions: n in parentheses; read-out: Ki (nM ± SEM) MOR
Description: The peptides of Table 1 shown below in Tables 3 and 4 were evaluated in radioligand binding assays for mu, kappa and delta opioid receptor affinities in vitro, and in the mouse 55° C. warm water tail withdrawal assay in vivo for antinociception and opioid antagonist activity.
Non-standard residues stand in square brackets, D forms with d. Residues, ends and D or L forms follow the SMILES beside them.
assay_metric: Ki

>>> reading("O=C1N[C@H](Cc2ccccc2)C(=O)N[C@H](Cc2c[nH]c3ccccc23)C(=O)N[C@H](Cc2ccccc2)C(=O)N2CCC[C@H]12 [JVA 3613, cyclo[D-Phe-D-Pro-D-Phe-D-Trp]] (cyclo([dF][dP][dF][dW]))")
"> 10000 nM"
>>> reading("O=C1N[C@H](Cc2c[nH]c3ccccc23)C(=O)N[C@H](Cc2ccccc2)C(=O)N2CCC[C@@H]2C(=O)N[C@H]1Cc1ccccc1 [JVA 3609, cyclo[D-Phe-D- Pro-Phe-D-Trp]] (cyclo(F[dW][dF][dP]))")
"> 10000 nM"
>>> reading("O=C1N[C@H](Cc2ccccc2)C(=O)N2CCC[C@@H]2C(=O)N[C@@H](Cc2ccccc2)C(=O)N[C@H]1Cc1c[nH]c2ccccc12 [JVA 3605, cyclo[D-Phe-D- Pro-Phe-Trp]] (cyclo([dF][dP]FW))")
"> 10000 nM"
